Assay: folding enthalpy; higher = less favourable; fluorescence melt of hairpins on a sequencing array, two-state fit
Settings: sodium 0.088 M
Property: folding enthalpy (kcal/mol)
Response body: numeric value in kcal/mol, unit text excluded.

// field: folding enthalpy; key: GATCGTCTCAACGATC ((((((....)))))) ; value = -41.6

Record GTGTGCGAAAGCAGGCAC ((((((....)))..))) , field folding enthalpy: -15.8

Lab note: measured folding enthalpy of GAAAACGAAAGTTTGTTC ((((((....)))..))) was -13.5

According to the records, this sequence GCGCGTGGAAACATGCGC ((((.((....)).)))) displays folding enthalpy of -40.2

GATCGACGAAAGTCTATC (((.(((....))).))) has a reported folding enthalpy of -26.8

Per the records, this sequence ( GATCTATTCTAGATC ((((((...)))))) ) has folding enthalpy equal to -27.6

Sure, the documented folding enthalpy for GTGAATGCGAAAGCACAC (((..(((....)))))) is -14.7

Lookup result for GACAGCGAAAGCTGCGTC ((((((....)))..))) ; measured folding enthalpy: -10.1

Lab book: folding enthalpy of GGACTTCCGAAAGGATCC (((..(((....)))))) noted as -12.7

The sequence GATCCTCAGCAGGATC ((((((....)))))) showed folding enthalpy equal to -33.2

The sequence GCAACAGGAAACTGTCGC ((.((((....)))).)) showed folding enthalpy equal to -32.1

Sample GCTGTGCGAAAGCACTGC ((.((((....)))).)) ; folding enthalpy observed: -24.1

---

Assay: folding enthalpy; higher = less favourable; fluorescence melt of hairpins on a sequencing array, two-state fit
Settings: sodium 0.088 M
Classify as follows. Reported folding enthalpy greater than or equal to -40 kcal/mol: Y. Reported folding enthalpy below: N.

Given GATCAGCGAGCTGATC ((((((....)))))) , state whether its folding enthalpy is at least -40 kcal/mol. N

Hi team, for GTAACCGGAAACGGTTGC (.(((((....))))).) , is the recorded folding enthalpy at or above -40 kcal/mol? Y

Determine whether measured folding enthalpy meets or exceeds -40 kcal/mol for GAATCTGAAAAGATTC ((((((....)))))) Y

Form field: folding enthalpy at least -40 kcal/mol? Entry: GATCGCTGGGCGATC ((((((...)))))) Y

Could you please find out whether GGGTAGCGAAAGCTCCCC (((.(((....))).))) has folding enthalpy that meets -40 kcal/mol or exceeds it? Y

---

Record form. Attribute: folding enthalpy. Fill in for each entry.
Assay: folding enthalpy; higher = less favourable; fluorescence melt of hairpins on a sequencing array, two-state fit
Conditions: sodium 0.088 M
Expressed in kcal/mol, but write only the number.

Item: GATCCGGGACCGGATC ((((((....)))))) | folding enthalpy: -44.4

The value of folding enthalpy measured for the sequence GGCAAGGCGAAAGCCGCC (((..(((....)))))) turned out to be -13.6

folding enthalpy in this record for GATCGTAGAAACGATC ((((((....)))))) : -35.2

Entry GGCGTCGAAAGACTCGCC ((((((....)))..))) , folding enthalpy reported as -20.6

So for GGTTGCGAAAGCAGTACC ((((((....)))..))) , the logged folding enthalpy turned out to be -16.9

So for GCTAAGCGAAAGCCTGGC ((.(.((....)).).)) , the logged folding enthalpy turned out to be -17.9

Note to self: folding enthalpy recorded for GCGAATCCTCGC ((((....)))) was -24.5

folding enthalpy measured on GTCAGAGGAAACTCCGAC (((.(((....))).))) = -25.3

Lookup result for GATCAGACGGCTGATC ((((((....)))))) ; measured folding enthalpy: -52.4

So for GACGCCGAAAGGCCAGTC ((((((....)))..))) , the logged folding enthalpy turned out to be -15

Reported folding enthalpy for GTACACGAAAGTGTGTAC ((((((....)))..))) was -13.8

So, GCAAAACGAAAGTTGTGC (((.(((....))).))) ? Its folding enthalpy was -34.2

---

Experiment: folding enthalpy; higher = less favourable; fluorescence melt of hairpins on a sequencing array, two-state fit
Conditions: sodium 0.088 M
For each record, write down the corresponding folding enthalpy.

Looking up GGCGTGGGAAACCACGTC (.(((((....))))).) , I see its folding enthalpy listed as -21.1 kcal/mol

Data point: GCCCCGCGAAAGCGGTGC ((.((((....)))).)) ; folding enthalpy = -15.7 kcal/mol

Form field folding enthalpy, entry GCGTGGACGAAAGTCCGC (((..(((....)))))) : -11.3 kcal/mol

Per the records, this sequence ( GATCTCCGCGAGATC ((((((...)))))) ) has folding enthalpy equal to -44.8 kcal/mol

Record GGGGTACGAAAGTATCCC (((.(((....))).))) . Reported folding enthalpy: -33.5 kcal/mol

The recorded folding enthalpy for entry GTGCCAGGAAACTGGTGC (..((((....))))..) equals -26.2 kcal/mol

Sample GCACTGCGAAAGCGCTGC (((..((....))..))) ; folding enthalpy observed: -20.6 kcal/mol

Given item GACGTGGGAAACCGCGTC ((((.((....)).)))) , the value recorded as its folding enthalpy is -43.8 kcal/mol

The sequence GTTGCCGGAAACGACAAC ((((.((....)).)))) showed folding enthalpy equal to -28 kcal/mol

Measured folding enthalpy of GTCCAGGGAAACCTAGAC (((.(((....))).))) : -19 kcal/mol

Documented folding enthalpy of GAAGCCGAAAGGCCGTTC ((((((....)))..))) : -6.55 kcal/mol

Item: GGACCCGAAAGGGCATCC ((((((....)))..))) | folding enthalpy: -11.7 kcal/mol

---

So I've got a bunch of sequences here, and I need their folding enthalpy values.
Test: folding enthalpy; higher = less favourable; fluorescence melt of hairpins on a sequencing array, two-state fit
Settings: sodium 0.088 M
Quick reminder: number only, in kcal/mol, skip the unit.

The sequence listed as GTCTTCGAAAGAAGGGAC ((((((....)))..))) has a reported folding enthalpy of -14.1

Memo: GCTCCGCGAAAGCGAGGC ((..(((....)))..)) , reported folding enthalpy: -14.4

The reported folding enthalpy of the sequence GGGAACGAAAGTTTGCCC ((((((....)))..))) was -20.8

// field: folding enthalpy; key: GTTGTCGAAAGACCAAAC ((((((....)))..))) ; value = -10.6

Please fill in: folding enthalpy reported for GATCGCCTTCGCGATC ((((((....)))))) = -41

Sample GCATAGCGAAAGCAACGC ((.(.((....)).).)) ; folding enthalpy observed: -12

Briefly, folding enthalpy measured for GAGATACGAAAGTACCTC (((.(((....))).))) : -31.3

sequence GATCTTTGCGAAGATC ((((((....)))))) , folding enthalpy observed: -45.8

Just so you know, measured folding enthalpy for GATCAACCAGTTGATC ((((((....)))))) came out at -41.9

Entry GGGTCCCGAAAGGGCCCC (((.(((....))).))) ; folding enthalpy = -17.9

Summary for this sequence, GCGAGGGCTCGC ((((....)))) : folding enthalpy is -25.5

Documented folding enthalpy of CGCCACGGAAACGTAGCG (((.(((....))).))) : -37.7

Query GCGGCTTTCCGC ((((....)))) yields folding enthalpy of -25

In plain terms, GACTGTGGAAACACGGTC (((.(((....))).))) has a documented folding enthalpy of -40.6

folding enthalpy in this record for GTATCCCGAAAGGGTAC (((.(((....)))))) : -17.9

Short answer for GCGAGAGGAAACTCTCAC (.(((((....))))).) : folding enthalpy was -17.9

The recorded folding enthalpy for GCCTGCGAAAGCACCGGC ((((((....)))..))) is -18.5

The sequence listed as GTCGTGGGAAACTACGAC (((((.(....).))))) shows folding enthalpy equal to -37.3

The reported value for GATCAGTGTACTGATC ((((((....)))))) in terms of folding enthalpy is -33.1

Record GTCACGGGAAACCGTAAC ((.((((....)))).)) . Reported folding enthalpy: -16.5

Notebook: GATCTCACAGAGATC ((((((...)))))) , folding enthalpy read as -39.3

The recorded folding enthalpy for entry GATGGCGAAAGCCTATC ((((((....))).))) equals -12.7

Sample GCGTGCGAAAGCACCGC ((((((....))).))) ; folding enthalpy observed: -13.8

Consider GCTGCCGAAAGGCTCAGC ((((((....)))..))) . Its measured folding enthalpy is -15

For record ATTGCGAAAGCAAT (((((....))))) the listed folding enthalpy is -17.5

Looking up GCCGTCGGAAACGATGGC (((.(((....))).))) , I see its folding enthalpy listed as -41.1

Entry GATCAAATCTTTGATC ((((((....)))))) — recorded folding enthalpy = -30.3

// folding enthalpy value for GACGTACGAAAGTATGTC (((.(((....))).))) : -43.4

folding enthalpy measured on GCATGGCGAAAGCACTGC (((..((....))..))) = -20.6

Lab note: measured folding enthalpy of GCACCGCGAAAGCTGAGC ((.(.((....)).).)) was -14.4

Field folding enthalpy (entry GTCCATGCGAAAGCAGAC (((..(((....)))))) ) reads -12.9

// GTGTCGCGAAAGCGCAC (((.(((....)))))) : folding enthalpy value = -18.8

Entry GATCTACGCTAGATC ((((((...)))))) — recorded folding enthalpy = -18.5

Memo: GAACCCCGAAAGGGCTTC (((.(((....))).))) , reported folding enthalpy: -15.3

Kindly note the recorded folding enthalpy for GGCACGGCGAAAGCCGCC (((..(((....)))))) , which is -8.23

According to the records, this sequence GATCTGGTGTCAGATC ((((((....)))))) displays folding enthalpy of -35.2

Documented folding enthalpy of GACCATGAAAATGGTC ((((((....)))))) : -36.9

In plain terms, GCGATTCGAAAGAACCGC (((.(((....))).))) has a documented folding enthalpy of -38.6

The value of folding enthalpy measured for the sequence GCTAAGCGAAAGCGTCGC ((.(.((....)).).)) turned out to be -14

For this sequence ( GTAGTACGAAAGTAGTAC (((.(((....))).))) ), measured folding enthalpy is -33.5

Field folding enthalpy (entry GGATCAGGAAACTGACCC ((.((((....)))).)) ) reads -27.7

Record GGAGGGACGAAAGTCTCC (((..(((....)))))) . Reported folding enthalpy: -13.4

Entry GATCCTAAGGAGGATC ((((((....)))))) — recorded folding enthalpy = -25.2

Notebook: GATCCTCGTGAGGATC ((((((....)))))) , folding enthalpy read as -36.6

GET /value?item= GTTTAAGGAAACTTGAAC (((.(((....))).))) &field=folding enthalpy returns -18.5

Lab note: measured folding enthalpy of GTAGCCGAAAGGCGTTAC ((((((....)))..))) was -8

// field: folding enthalpy; key: GGTACCGAAAGGTACACC ((((((....)))..))) ; value = -9.32

// recorded folding enthalpy for GTCATGTCGAAAGACGAC (((..(((....)))))) : -14.8

Given item GGCTTTGGAAACAAGGCC (((.(((....))).))) , the value recorded as its folding enthalpy is -40.5

The sequence listed as GTCCGCGAAAGCGAAGAC ((((((....)))..))) shows folding enthalpy equal to -17.4
